Kindly state PBM binding z-score for each of the entries shown.
Tested on: RARg homodimer (NR concentration 270 nM)
Assay: PBM binding z-score (relative to random genomic background probes); higher = stronger binding; sequences stand for … in GC…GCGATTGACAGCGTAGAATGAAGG
Answer with the value's number alone.

Field request: PBM binding z-score | item: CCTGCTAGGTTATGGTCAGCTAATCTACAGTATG
0.636

Field request: PBM binding z-score | item: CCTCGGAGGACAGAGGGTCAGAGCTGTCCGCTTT
2.4

Field request: PBM binding z-score | item: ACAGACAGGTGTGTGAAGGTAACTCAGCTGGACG
-0.134

Field request: PBM binding z-score | item: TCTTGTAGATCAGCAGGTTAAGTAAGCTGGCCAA
-0.396

Field request: PBM binding z-score | item: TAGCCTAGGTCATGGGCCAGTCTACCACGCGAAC
4.43

Field request: PBM binding z-score | item: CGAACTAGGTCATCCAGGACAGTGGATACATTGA
4.8

Field request: PBM binding z-score | item: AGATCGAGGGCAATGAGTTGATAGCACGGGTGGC
1.38

Field request: PBM binding z-score | item: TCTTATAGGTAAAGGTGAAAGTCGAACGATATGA
1.45

Field request: PBM binding z-score | item: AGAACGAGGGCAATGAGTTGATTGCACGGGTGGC
1.23

Field request: PBM binding z-score | item: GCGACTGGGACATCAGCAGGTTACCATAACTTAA
0.0107

Field request: PBM binding z-score | item: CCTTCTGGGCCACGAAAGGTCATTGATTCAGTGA
4.61

Field request: PBM binding z-score | item: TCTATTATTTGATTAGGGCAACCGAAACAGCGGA
0.596
